These entries and their values trace back to patent US12473295B2.

system: KO-52 cells; assay: Proliferation assay (spheroid growth, 8 days), KO-52 control cell line; type: cell-based, human; conditions: Homo sapiens, […], read-out: spheroid assay_OneTime KO-52 IC50
Structures can show the parent of a compound that is named as a salt.
QUANTITY: pIC50
// field semantics: pIC50 = negative decimal log of concentration (mol/L)

These solved cases illustrate the format of a correct answer.
* CCN(C)C[C@@H](O)C[C@H](C(C)C)N1CC2(CCN(c3ncnnc3Oc3ccc(F)cc3C(=O)N(CC)C(C)C)C2)C1 (single isomer, unassigned) | 7.64
* CCCN(C)CCC[C@H](C(C)C)N1CC2(CCN(c3ncnnc3Oc3ccc(F)cc3C(=O)N(CC)C(C)C)C2)C1 (single isomer, unassigned) | 4.95
* CCN(C(=O)c1cc(F)ccc1Oc1nncnc1N1CCC2(C1)CN([C@H](CCCNCC(COC)OC)C(C)C)C2)C(C)C (some centres unmarked) [Compound 172, fumarate] | 4.87

Query: What pIC50 value was documented for this compound, CCCN(C)CCC[C@@H](C(C)C)N1CC2(CCN(c3ncnnc3Oc3ccc(F)cc3C(=O)N(CC)C(C)C)C2)C1 (single isomer, unassigned) ?
Result: 4.94

Query: # repeat for O=C(O)/C=C/C(=O)O.[2H]C([2H])(COC)N(C)CCC[C@H](C(C)C)N1CC2(CCN(c3ncnnc3Oc3ccc(F)cc3C(=O)N(CC)C(C)C)C2)C1
Result: 5.30

###

test system: KO-52 cells; assay: Proliferation assay (spheroid growth, 8 days), KO-52 control cell line; format: cell-based, human; conditions: Homo sapiens, […], read-out: spheroid assay_OneTime KO-52 IC50
Where a name gives a salt, the structure may show the parent alone.
QUANTITY: IC50

Examples with answers:
- CCN(C(=O)c1cc(F)ccc1Oc1nncnc1N1CCC2(C1)CN([C@H](CCCN(C)CC(OC)OC)C(C)C)C2)C(C)C [Compound 150, fumarate]: 8.7 µM
- CCN(C(=O)c1cc(F)ccc1Oc1nncnc1N1CCC2(C1)CN([C@H](CCCN(C)[C@@H](C)CC(=O)N(C)C)C(C)C)C2)C(C)C (single isomer, unassigned) [Compound 185]: 1.7 µM
- CCN(C(=O)c1cc(F)ccc1Oc1nncnc1N1CCC2(C1)CN([C@H](CCNCC(N)=O)C(C)C)C2)C(C)C (single isomer, unassigned) [Compound 230]: > 15 µM
- CCN(C(=O)c1cc(F)ccc1Oc1nncnc1N1CCC2(C1)CN([C@H](CCCN(C)C[C@H](C)OC)C(C)C)C2)C(C)C (single isomer, unassigned) [Compound 251]: 3.9 µM
- CCN(C(=O)c1cc(F)ccc1Oc1nncnc1N1CCC2(C1)CN([C@@H](CCCNC(=O)NC)C(C)C)C2)C(C)C [Compound 9]: > 15 µM
- CCN(C(=O)c1cc(F)ccc1Oc1nncnc1N1CCC2(C1)CN([C@H](CCCN(C)[C@@H](C)COC)C(C)C)C2)C(C)C [Compound 157]: 13.8 µM
- CCN(C(=O)c1cc(F)ccc1Oc1nncnc1N1CCC2(C1)CN([C@H](C[C@H](O)CN(C)C(C)C)C(C)C)C2)C(C)C (single isomer, unassigned) [Compound 325]: > 15 µM
- CCN(C)C[C@@H](O)C[C@H](C(C)C)N1CC2(CCN(c3ncnnc3Oc3ccc(F)cc3C(=O)N(C(C)C)C(C)C)C2)C1 (single isomer, unassigned) [Compound 391]: > 15 µM

Query: Item under review: CCN(C(=O)c1cc(F)ccc1Oc1nncnc1N1CCC2(C1)CN([C@H](CCCN(C)C[C@@H](O)COC)C(C)C)C2)C(C)C [Compound 283, fumarate] . Reported IC50?
Result: > 15 µM

Query: Would you mind doing CCN(C(=O)c1cc(F)ccc1Oc1nncnc1N1CCC2(C1)CN([C@H](CN)C(C)C)C2)C(C)C (single isomer, unassigned) [Compound 24] as well?
Result: > 15 µM

Query: Param item: CC(C)[C@@H](CCCN(C)C[C@H](C)C(N)=O)N1CC2(CCN(c3ncnnc3Oc3ccc(F)cc3C(=O)N(C(C)C)C(C)C)C2)C1 (single isomer, unassigned) [Compound 205]
Result: > 15 µM

Query: Repeat for the following compound: CC(C)[C@@H](C[C@@H](O)CN(C)C)N1CC2(CCN(c3ncnnc3Oc3ccc(F)cc3C(=O)N(C(C)C)C(C)C)C2)C1 (single isomer, unassigned) [Compound 365]
Result: > 15 µM

Query: Next: CCN(C(=O)c1cc(F)ccc1Oc1nncnc1N1CCC2(C1)CN([C@H](CCN(C)CCO)C(C)C)C2)C(C)C (single isomer, unassigned) [Compound 270]
Result: > 15 µM

Query: Also need CCN(C(=O)c1cc(F)ccc1Oc1nncnc1N1CCC2(C1)CN([C@H](CCCNC)C(C)C)C2)C(C)C [Compound 398] , thanks.
Result: > 15 µM

Query: What do we get for CCN(C(=O)c1cc(F)ccc1Oc1nncnc1N1CCC2(C1)CN([C@H](CCCN(C)C(=O)OC)C(C)C)C2)C(C)C [Compound 22] ?
Result: 12.8 µM

Query: Again, but for CCN(C(=O)c1cc(F)ccc1Oc1nncnc1N1CCC2(C1)CN([C@H](CCCNC(COC)COC)C(C)C)C2)C(C)C [Compound 159, fumarate]
Result: 6.3 µM

###

tested on: KO-52 cells; assay: Proliferation assay (spheroid growth, 8 days), KO-52 control cell line; type: cell-based, human; settings: Homo sapiens, […], read-out: spheroid assay_OneTime KO-52 IC50
Counter-ions that a name gives are not always drawn.
QUANTITY: IC50
Entry format: amount then unit.

Use these answered entries as a reference point.
* CCN(C(=O)c1cc(F)ccc1Oc1nncnc1N1CCC2(C1)CN([C@H](C[C@@H](O)CN(C)C(C)C)C(C)C)C2)C(C)C (single isomer, unassigned) [Compound 323] | 13.4 µM
* COCCNCCC[C@H](C(C)C)N1CC2(CCN(c3ncnnc3Oc3ccc(F)cc3C(=O)N(C(C)C)C(C)C)C2)C1 (single isomer, unassigned) [Compound 99] | 11.5 µM

Then there is this compound:
Query: May I ask what IC50 has been recorded for CCN(C(=O)c1cc(F)ccc1Oc1nncnc1N1CCC2(C1)CN([C@H](CCCN(CCOC)CCOC)C(C)C)C2)C(C)C [Compound 90, formate] ?
Result: 1 µM

###

Documented pIC50 across a set of molecules
biological target: hERG potassium channel (Homo sapiens (Human), UniProt Q12809); test: Effect on membrane potassium current IKr in hERG transfected CHO cells, Protocol 1 (QPatch)
Sequence (Q12809 whole entry): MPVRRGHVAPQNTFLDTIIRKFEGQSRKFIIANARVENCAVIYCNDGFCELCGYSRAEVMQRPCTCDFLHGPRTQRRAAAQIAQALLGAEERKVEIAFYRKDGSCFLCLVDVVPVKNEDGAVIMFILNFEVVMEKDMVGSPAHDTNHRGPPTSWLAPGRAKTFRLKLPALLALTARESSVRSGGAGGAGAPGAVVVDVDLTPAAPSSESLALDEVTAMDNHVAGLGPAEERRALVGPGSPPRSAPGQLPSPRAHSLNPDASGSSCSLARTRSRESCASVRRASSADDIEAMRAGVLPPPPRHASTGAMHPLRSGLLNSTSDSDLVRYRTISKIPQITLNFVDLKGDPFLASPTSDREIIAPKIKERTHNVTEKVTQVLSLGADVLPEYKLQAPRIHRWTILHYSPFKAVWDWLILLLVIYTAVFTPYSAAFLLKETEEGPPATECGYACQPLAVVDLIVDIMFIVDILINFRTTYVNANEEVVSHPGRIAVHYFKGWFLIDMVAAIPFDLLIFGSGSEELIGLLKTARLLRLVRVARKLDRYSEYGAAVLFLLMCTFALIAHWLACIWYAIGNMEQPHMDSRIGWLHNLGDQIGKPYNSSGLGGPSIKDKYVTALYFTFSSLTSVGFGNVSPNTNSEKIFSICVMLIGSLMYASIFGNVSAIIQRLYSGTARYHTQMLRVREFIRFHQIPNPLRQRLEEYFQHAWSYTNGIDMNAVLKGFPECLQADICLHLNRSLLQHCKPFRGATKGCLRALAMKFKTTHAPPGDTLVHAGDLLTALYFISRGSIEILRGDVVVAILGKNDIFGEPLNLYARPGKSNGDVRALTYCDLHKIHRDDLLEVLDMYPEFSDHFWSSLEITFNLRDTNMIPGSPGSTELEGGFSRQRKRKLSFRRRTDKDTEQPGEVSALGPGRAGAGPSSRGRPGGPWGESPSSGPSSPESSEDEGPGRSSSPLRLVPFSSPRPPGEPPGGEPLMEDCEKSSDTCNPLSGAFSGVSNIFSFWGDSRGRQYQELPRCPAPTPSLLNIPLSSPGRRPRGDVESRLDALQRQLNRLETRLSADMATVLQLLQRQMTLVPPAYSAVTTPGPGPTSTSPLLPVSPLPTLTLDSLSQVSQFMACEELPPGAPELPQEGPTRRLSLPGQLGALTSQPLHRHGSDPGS
Answer as the number alone; pIC50 is minus log10 of concentration in mol/L.

* CCN(C(=O)c1cc(F)ccc1Oc1nncnc1N1CCC2(C1)CN([C@H](CCCN(C)C(=O)OC(C)OC(=O)C(C)C)C(C)C)C2)C(C)C (stereo partly drawn) | 5.30
* CCN(C(=O)c1cc(F)ccc1Oc1nncnc1N1CCC2(C1)CN([C@H](CCCN(C)C(=O)OC)C(C)C)C2)C(C)C | 4.68
* CCN(C(=O)c1cc(F)ccc1Oc1nncnc1N1CCC2(C1)CN([C@H](CCCNC(=O)OC(C)OC(=O)C(C)C)C(C)C)C2)C(C)C (stereo partly drawn) | 5.12
* CCN(C(=O)c1cc(F)ccc1Oc1nnccc1N1CCC2(C1)CN([C@H](CCCN(C)CCOC)C(C)C)C2)C(C)C (single isomer, unassigned) | 5.22
* CCN(C(=O)c1cc(F)ccc1Oc1nncnc1N1CCC2(C1)CN([C@H](CCCN(C)CCC#N)C(C)C)C2)C(C)C | 4.59

Query: Quick check: pIC50 on hERG potassium channel (Homo sapiens (Human), UniProt Q12809), item COCCN(C)CCC[C@H](C(C)C)N1CC2(CCN(c3ncnnc3Oc3ccc(F)cc3C(=O)N(C(C)C)C(C)C)C2)C1 (single isomer, unassigned) ?
Result: 4.51

###

biological target: menin/MLL (terbium chelate-labeled menin, FITC-MBM1 peptide) (Homo sapiens (Human)); assay: Menin/MLL homogenous time-resolved fluorescence (HTRF) assay; format: binding; conditions: read-out: HTRF-30 min incubation IC50; 30 min incubation;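 further: IC50 from percent inhibition of HTRF signal, normalized between wells without competitor and wells with a saturating competitor that displaces FITC-MBM1 from His-tagged menin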
Sequence (O00255 other isoform, or with tags, fused parts or gaps): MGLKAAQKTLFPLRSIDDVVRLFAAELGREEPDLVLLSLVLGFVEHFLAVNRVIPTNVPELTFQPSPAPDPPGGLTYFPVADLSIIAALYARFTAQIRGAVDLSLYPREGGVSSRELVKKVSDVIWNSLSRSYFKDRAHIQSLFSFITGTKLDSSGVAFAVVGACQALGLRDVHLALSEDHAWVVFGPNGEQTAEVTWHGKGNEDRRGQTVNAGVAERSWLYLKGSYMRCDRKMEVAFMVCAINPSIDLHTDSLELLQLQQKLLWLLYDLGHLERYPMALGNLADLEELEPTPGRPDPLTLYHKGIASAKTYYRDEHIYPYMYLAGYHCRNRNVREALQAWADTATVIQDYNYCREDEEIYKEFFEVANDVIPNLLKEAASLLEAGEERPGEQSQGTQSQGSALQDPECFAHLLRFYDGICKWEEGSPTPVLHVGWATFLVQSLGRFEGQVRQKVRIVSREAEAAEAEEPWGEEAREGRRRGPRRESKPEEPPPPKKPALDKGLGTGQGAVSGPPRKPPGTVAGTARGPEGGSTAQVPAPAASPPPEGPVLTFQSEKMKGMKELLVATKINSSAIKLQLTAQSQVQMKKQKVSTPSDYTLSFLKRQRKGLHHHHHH
Class field: derived from IC50; ranges bucket 1: < 0.5 nM; bucket 2: ≥ 0.5 nM and < 4 nM; bucket 3: ≥ 4 nM

The examples below pair each entry with its known result.
• CCN(C(=O)c1cc(F)ccc1Oc1nncnc1N1CCC2(C1)CN([C@H](CCCO)C(C)C)C2)C(C)C (single isomer, unassigned) = bucket 1
• CC(C)[C@@H](CCCN(C)C)N1CC2(CCN(c3ccnnc3Oc3ccc(F)cc3C(=O)N(C(C)C)C(C)C)C2)C1 (single isomer, unassigned) = bucket 1
• CC(C)[C@H](CCCN(C)C)N1CC2(CCN(c3ccnnc3Oc3ccc(F)cc3C(=O)N(C(C)C)C(C)C)C2)C1 (single isomer, unassigned) = bucket 2
• CCN(C(=O)c1cc(F)ccc1Oc1nncnc1N1CCC2(C1)CN([C@@H](CCO)C(C)C)C2)C(C)C (single isomer, unassigned) = bucket 3

Query: Classify this compound: CCN(C(=O)c1cc(F)ccc1Oc1nnccc1N1CCC2(C1)CN([C@@H](CCCN(C)C)C(C)C)C2)C(C)C (single isomer, unassigned)
Result: bucket 2

Query: What about this compound? CNC(=O)CC[C@H](C(C)C)N1CC2(CCN(c3ncnnc3Oc3ccc(F)cc3-c3cncnc3C3CC3)C2)C1 (single isomer, unassigned)
Result: bucket 3

Query: How about this compound: CCN(C(=O)c1cc(F)ccc1Oc1nncnc1N1CCC2(C1)CN([C@@H](CCCO)C(C)C)C2)C(C)C (single isomer, unassigned)
Result: bucket 3

Query: Field entry: CNC(=O)CC[C@@H](C(C)C)N1CC2(CCN(c3ncnnc3Oc3ccc(F)cc3-c3cncnc3C3CC3)C2)C1 (single isomer, unassigned)
Result: bucket 1
